protocol-text: Stability of canagliflozin in rat plasma samples (QC samples)
Type: in vitro ADME
condition-details: rat plasma; three freeze–thaw cycles (each at −80 °C for 24 h); nominal concentration 500; n = 5
measure-name: Concentration found after storage (Mean ± SD) (ng/mL)
Lab book: enter the figure in ng/mL, no units written.

The recorded Concentration found after storage (Mean ± SD) for entry `Cc1ccc([C@@H]2O[C@H](CO)[C@@H](O)[C@H](O)[C@H]2O)cc1Cc1ccc(-c2ccc(F)cc2)s1` equals 505

====

protocol-text: Stability of canagliflozin in rat plasma samples (QC samples)
Assay type: in vitro ADME
condition-details: rat plasma; −80 °C for 30 days; nominal concentration 500; n = 5
measure-name: Concentration found after storage (Mean ± SD) (ng/mL)
Lab book: enter the figure in ng/mL, no units written.

The recorded Concentration found after storage (Mean ± SD) for entry Cc1ccc([C@@H]2O[C@H](CO)[C@@H](O)[C@H](O)[C@H]2O)cc1Cc1ccc(-c2ccc(F)cc2)s1 [Canagliflozin] equals 504

The reported numbers originate from paper PMC6100046.
